Assay System: UBE2G1
Experiment Summary: reporter assay of Huesken 2005
Condition Context: siRNA
Oligonucleotides are written 5' to 3', each unit as a sugar letter and its base; * is a phosphorothioate linkage, no mark a phosphodiester; rarer units and linkages stand in square brackets, end groups in braces. Plain capitals give the bases only. d = 2'-deoxy (DNA); r = 2'-OH (RNA)
Output: class label from normalised inhibition (eCFP-eYFP dual reporter). Mapping: c1 = under 50%, c2 = from 50% up to 90%, c3 = 90% and over

Sample answers from the record:
>>> qualitative_label("sense rCrUrGrGrGrGrArArGrArUrArArGrUrArUrGrGdTdT / antisense rCrCrArUrArCrUrUrArUrCrUrUrCrCrCrCrArGdGdC")
"c2"
>>> qualitative_label("sense rArUrGrGrUrUrArUrGrArArArArGrCrCrArGrAdTdT / antisense rUrCrUrGrGrCrUrUrUrUrCrArUrArArCrCrArUdAdC")
"c1"
>>> qualitative_label("sense rUrGrCrCrCrGrCrUrGrUrGrUrArArGrArArArAdTdT / antisense rUrUrUrUrCrUrUrArCrArCrArGrCrGrGrGrCrAdAdC")
"c3"

*Q* Form: Item = sense rUrGrArUrUrArGrUrGrUrCrArUrUrUrCrUrArUdTdT / antisense rArUrArGrArArArUrGrArCrArCrUrArArUrCrAdTdG ; Class = ?
*A* c2

*Q* What would you report for sense rUrUrUrCrUrArUrUrCrUrUrCrArUrGrArGrCrCdTdT / antisense rGrGrCrUrCrArUrGrArArGrArArUrArGrArArAdTdG ?
*A* c1

*Q* Then this substance: sense rUrGrGrUrGrArUrGrUrGrUrGrCrArUrUrUrCrUdTdT / antisense rArGrArArArUrGrCrArCrArCrArUrCrArCrCrAdTdT
*A* c2

*Q* One more substance: sense rCrArUrGrArGrCrCrUrGrGrGrGrArArGrArUrAdTdT / antisense rUrArUrCrUrUrCrCrCrCrArGrGrCrUrCrArUrGdAdA
*A* c2

*Q* Field entry: sense rGrGrUrGrArUrGrUrGrUrGrCrArUrUrUrCrUrAdTdT / antisense rUrArGrArArArUrGrCrArCrArCrArUrCrArCrCdAdT
*A* c3

*Q* Again, but for sense rArArGrCrCrArGrArGrGrArArCrGrCrUrGrGrCdTdT / antisense rGrCrCrArGrCrGrUrUrCrCrUrCrUrGrGrCrUrUdTdT
*A* c1

*Q* Next up: sense rArArUrGrGrArGrGrGrArArGrArUrArGrArArAdTdT / antisense rUrUrUrCrUrArUrCrUrUrCrCrCrUrCrCrArUrUdCdT
*A* c2

* * *

Assay System: UBE2G1
Experiment Summary: reporter assay of Huesken 2005
Condition Context: siRNA
Oligonucleotides are written 5' to 3', each unit as a sugar letter and its base; * is a phosphorothioate linkage, no mark a phosphodiester; rarer units and linkages stand in square brackets, end groups in braces. Plain capitals give the bases only. d = 2'-deoxy (DNA); r = 2'-OH (RNA)
Measured Property: normalised inhibition (eCFP-eYFP dual reporter) (%)
Reply with just the number (in %).

>>> measured_result("sense rCrCrCrUrCrCrGrArCrCrUrCrCrUrArArArArUdTdT / antisense rArUrUrUrUrArGrGrArGrGrUrCrGrGrArGrGrGdGdA")
62.4

*Q* Query (substance): sense rArUrGrUrUrGrArUrGrCrUrGrCrGrArArArGrAdTdT / antisense rUrCrUrUrUrCrGrCrArGrCrArUrCrArArCrArUdTdA ; field requested: normalised inhibition (eCFP-eYFP dual reporter)
*A* 104

*Q* Same read-out for sense rArGrArCrCrCrUrArArUrGrGrArGrArCrUrCrAdTdT / antisense rUrGrArGrUrCrUrCrCrArUrUrArGrGrGrUrCrUdGdC ?
*A* 89.8

*Q* Another substance to check: sense rGrCrUrGrGrCrUrCrCrCrUrArUrCrCrArCrArCdTdT / antisense rGrUrGrUrGrGrArUrArGrGrGrArGrCrCrArGrCdGdT
*A* 64

*Q* What about this substance? sense rArArArGrUrUrGrCrCrCrGrCrUrGrUrGrUrArAdTdT / antisense rUrUrArCrArCrArGrCrGrGrGrCrArArCrUrUrUdTdC
*A* 93.9

*Q* Same lookup for sense rUrArUrGrGrUrUrArUrGrArArArArGrCrCrArGdTdT / antisense rCrUrGrGrCrUrUrUrUrCrArUrArArCrCrArUrAdCdT , please.
*A* 31.8

*Q* // same read-out, input: sense rCrArCrCrCrArArArUrGrUrUrGrArUrArArArAdTdT / antisense rUrUrUrUrArUrCrArArCrArUrUrUrGrGrGrUrGdCdC
*A* 73.1
